# EXPERIMENTAL_TARGET: glucagon receptor (UniProt P47871 26-477, limits assumed)
# Sequence (P47871 26-477 limits assumed): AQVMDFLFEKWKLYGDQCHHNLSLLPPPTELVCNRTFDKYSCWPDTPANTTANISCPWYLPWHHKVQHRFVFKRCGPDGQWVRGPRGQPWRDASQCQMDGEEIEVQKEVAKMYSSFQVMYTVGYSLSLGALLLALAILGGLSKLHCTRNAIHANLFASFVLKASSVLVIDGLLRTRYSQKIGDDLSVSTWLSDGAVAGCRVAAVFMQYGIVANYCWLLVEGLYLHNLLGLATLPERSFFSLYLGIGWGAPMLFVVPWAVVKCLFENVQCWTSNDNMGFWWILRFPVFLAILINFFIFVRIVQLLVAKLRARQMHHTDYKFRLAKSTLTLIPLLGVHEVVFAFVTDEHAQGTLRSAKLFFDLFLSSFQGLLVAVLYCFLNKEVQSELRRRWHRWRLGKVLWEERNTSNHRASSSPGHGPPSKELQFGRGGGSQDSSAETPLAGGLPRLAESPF
# PROCEDURE_SUMMARY: cell-based or functional assay
Numbered stars: 1 amine (or outer) side, 2 acyl side, 3 side chain; on linkers, the order of the positions; unused ones are H or OH. Square brackets hold non-standard residues; d marks the D form. Side chains are listed from the residue outwards. Ends that are not written are not given here. * marks the point of attachment. β2His = Beta2-His (beta2-homo amino acid form of His; γGlu = O=C(O)[C@H](CCC(=O)[*:2])N[*:1]; Desaminohistidyl = O=C(CCc1c[nH]cn1)*; Palmitoyl = CCCCCCCCCCCCCCCC(=O)*; thioAla = not defined here
Lab note: anything with EC50 at Glucagon Receptor (cAMP luciferase reporter, HEK293) below 0.02 nM is marked criterion met; values at 0.02 nM or higher are marked criterion not met.

These solved cases illustrate the format of a correct answer.
[Desaminohistidyl]AQGTFTSDK([γGlu-Palmitoyl])SKYLDERAAQDFVQWLLEGGPSSGAPPPS-NH2 [peptide of SEQ ID NO: 22]    criterion met
Ac-[dH]AQGTFTSDK([γGlu-Palmitoyl])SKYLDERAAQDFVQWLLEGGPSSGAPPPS-NH2 [peptide of SEQ ID NO: 13]    criterion met
[dH]AQGTFTSDK([γGlu-Palmitoyl])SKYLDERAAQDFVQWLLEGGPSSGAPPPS-NH2 [peptide of SEQ ID NO: 16]    criterion met
[β2His]AQGTFTSDK([γGlu-Palmitoyl])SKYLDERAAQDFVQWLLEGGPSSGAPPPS-NH2 [peptide of SEQ ID NO: 25]    criterion not met

With those in mind, consider the next binder.
Below 0.02 nM on EC50 at Glucagon Receptor (cAMP luciferase reporter, HEK293)? Entry [thioAla]PQGTFTSDK([γGlu-Palmitoyl])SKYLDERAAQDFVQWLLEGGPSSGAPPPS-NH2 (reading uncertain) [peptide of SEQ ID NO: 33]
criterion not met
